All figures here come from patent US20120264685A1.

assay: Stability in simulated intestinal fluid; format: in vitro ADME; settings: 2 μM, 37° C., pH 7.5, 24 h
Where a SMILES comes first, the peptide text is derived from it. [ ]: non-standard residue; d: D form. ξ: configuration not given here. ξαMeBip(2'-Et,4'-OMe) = CCc1cc(OC)ccc1-c1ccc(CC(C)(N)C(=O)O)cc1; ξBip(2'-Et-4'-OMe) = CCc1cc(OC)ccc1-c1ccc(CC(N)C(=O)O)cc1; ξαMePhe(2,6-F2) = CC(N)(Cc1c(F)cccc1F)C(=O)O; ξαMe(hhPhe) = CC(N)(CCCc1ccccc1)C(=O)O; ξαMePhe(2-F) = CC(N)(Cc1ccccc1F)C(=O)O; ξhhPhe = NC(CCCc1ccccc1)C(=O)O; ξαMeD = CC(N)(CC(=O)O)C(=O)O
Task for the reader: assign each of the following compounds its reported % degradation in 24 h when incubated with simulated intestinal fluid.
Write it as a number; the unit % goes unstated.

QUERY: Could you tell me which % degradation in 24 h when incubated with simulated intestinal fluid is on file for CCc1cc(OC)ccc1-c1ccc(CC(NC(=O)[C@H](CC(=O)O)NC(=O)[C@H](CO)NC(=O)[C@@H](NC(=O)C(C)(Cc2ccccc2F)NC(=O)[C@@H](NC(=O)CNC(=O)[C@H](CCC(N)=O)NC(=O)[C@H](C)NC(=O)[C@H](Cc2c[nH]cn2)NC(=O)[C@@H](N)C(C)C)[C@@H](C)O)[C@@H](C)O)C(=O)NC(C)(CCCc2ccccc2)C(N)=O)cc1 (stereo partly drawn) [compound 92] (H-VHAQGT[ξαMePhe(2-F)]TSD[ξBip(2'-Et-4'-OMe)][ξαMe(hhPhe)]-NH2) ?
RESULT: 00

QUERY: Could you tell me which % degradation in 24 h when incubated with simulated intestinal fluid is on file for CCc1cc(OC)ccc1-c1ccc(CC(C)(NC(=O)C(C)(CC(=O)O)NC(=O)[C@H](CO)NC(=O)[C@@H](NC(=O)[C@H](Cc2ccccc2)NC(=O)[C@@H](NC(=O)CNC(=O)[C@H](CCC(N)=O)NC(=O)[C@H](C)NC(=O)[C@H](Cc2c[nH]cn2)NC(=O)[C@@H](N)C(C)C)[C@@H](C)O)[C@@H](C)O)C(=O)NC(CCCc2ccccc2)C(N)=O)cc1 (stereo partly drawn) [compound 58] (H-VHAQGTFTS[ξαMeD][ξαMeBip(2'-Et,4'-OMe)][ξhhPhe]-NH2) ?
RESULT: 43

QUERY: Could you tell me which % degradation in 24 h when incubated with simulated intestinal fluid is on file for CCc1cc(OC)ccc1-c1ccc(CC(C)(NC(=O)C(C)(CC(=O)O)NC(=O)[C@H](CO)NC(=O)[C@@H](NC(=O)C(C)(Cc2c(F)cccc2F)NC(=O)[C@@H](NC(=O)CNC(=O)[C@H](CCC(=O)O)NC(=O)[C@H](CO)NC(=O)[C@H](Cc2c[nH]cn2)NC(=O)[C@@H](N)C(C)C)[C@@H](C)O)[C@@H](C)O)C(=O)NC(C)(CCCc2ccccc2)C(N)=O)cc1 (stereo partly drawn) [compound 201] (H-VHSEGT[ξαMePhe(2,6-F2)]TS[ξαMeD][ξαMeBip(2'-Et,4'-OMe)][ξαMe(hhPhe)]-NH2) ?
RESULT: 45
